Provenance of the data: paper PMC2756588

# tested.on: T1, Boi2, P39969
# T1 sequence (P39969 32-116, looked up): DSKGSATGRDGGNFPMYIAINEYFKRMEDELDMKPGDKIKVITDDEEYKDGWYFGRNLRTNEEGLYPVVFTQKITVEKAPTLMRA
# assay.text: SPOT array
# experimental.parameters: median of control spots 1161
Known SPOT intensity of a selection of binders

| binder | SPOT intensity |
| --- | --- |
| QPQRTAPKPPISAPR | 1 |
| VRVKKRPLIRPLNSS | 3 |
| LYEAMPPTLPHRDWK | 2 |
| NSMRPPLLIPAATTK | 0 |
